Measured MIC on Escherichia coli K-12 R-5 follows.

Example compounds with recorded MIC:
COMPOUND | MIC
NC[C@H]1O[C@H](O[C@H]2[C@H](O)[C@@H](O[C@H]3O[C@H](CO)[C@@H](O)[C@H](N)[C@H]3O)[C@H](N)C[C@@H]2N)[C@H](N)[C@@H](O)[C@@H]1O [KM-B, Kanamycin B, reference compound] | > 100 µg/mL
NCC1OC(OC2C(N)CC(N)C(OC3OC(CO)C(O)C(N)C3O)C2O)C(O)C(O)C1O (stereo not drawn) [KM-A, Kanamycin A, reference compound] | > 100 µg/mL
NC[C@@H]1CC[C@@H](N)[C@@H](O[C@H]2[C@H](O)[C@@H](O[C@H]3O[C@H](CO)[C@@H](O)[C@H](N)[C@H]3O)[C@H](N)C[C@@H]2N)O1 [DKB, Dibekacin, reference compound] | 100 µg/mL

// batch mode: one MIC value per listed entry
1. CNC1C(O)C(OC2C(N)CC(N)C(OC3OC(CN)CCC3N)C2O)OC(CO)C1(C)O (stereo not drawn) [I-B2]
2. CNC1C(O)C(OC2C(N)CC(N)C(OC3OC(CN)CCC3O)C2O)OC(CO)C1(C)O (stereo not drawn) [I-A2]
3. CNCC1CCC(N)C(OC2C(N)CC(N)C(OC3OC(CO)C(C)(O)C(NC)C3O)C2O)O1 (stereo not drawn) [I-B1]

Response line:
["25 µg/mL", "> 100 µg/mL", "1.56 µg/mL"]

----------
# Tested on: Pseudomonas aeruginosa 99
# MEASUREMENT PROTOCOL: Minimum inhibitory concentration, Pseudomonas aeruginosa 99
# Format: cell-based
# SETTINGS: Pseudomonas aeruginosa 99 (inactivates aminoglycosides with an acetyltransferase)
Would you mind telling me the reported log10 of MIC of each entry?
// stored as log10 of MIC expressed in µg/mL

// batch mode: one log10 of MIC value per listed entry
1. CNCC1CCC(N)C(OC2C(N)CC(N)C(OC3OC(CO)C(C)(O)C(NC)C3O)C2O)O1 (stereo not drawn)
2. CNC1C(O)C(OC2C(N)CC(N)C(OC3OC(CN)CCC3N)C2O)OC(CO)C1(C)O (stereo not drawn)
3. NC[C@H]1O[C@H](O[C@H]2[C@H](O)[C@@H](O[C@H]3O[C@H](CO)[C@@H](O)[C@H](N)[C@H]3O)[C@H](N)C[C@@H]2N)[C@H](N)[C@@H](O)[C@@H]1O [KM-B, Kanamycin B, reference compound]
4. NCC1OC(OC2C(N)CC(N)C(OC3OC(CO)C(O)C(N)C3O)C2O)C(O)C(O)C1O (stereo not drawn) [KM-A, Kanamycin A, reference compound]
5. NC[C@@H]1CC[C@@H](N)[C@@H](O[C@H]2[C@H](O)[C@@H](O[C@H]3O[C@H](CO)[C@@H](O)[C@H](N)[C@H]3O)[C@H](N)C[C@@H]2N)O1 [DKB, Dibekacin, reference compound]

Response line:
0.50
0.80
1.70
2.00
0.19

Prompt line: Find the measured log10 of MIC of CNC1C(O)C(OC2C(N)CC(N)C(OC3OC(CN)CCC3O)C2O)OC(CO)C1(C)O (stereo not drawn) and report it.
Response line: 1.10

----------
# MEASUREMENT PROTOCOL: in vivo
# SETTINGS: mouse, iv
READOUT NAME: MTD (mg/kg)
Numbers only, in mg/kg.

Prompt line: Find the measured MTD of CNC1C(O)C(OC2C(N)CC(N)C(OC3OC(CN)CCC3N)C2O)OC(CO)C1(C)O (stereo not shown) and report it.
Response line: 125

----------
Would you mind telling me the reported MIC of each entry?
# Test system: Pseudomonas aeruginosa ATCC 8689
# MEASUREMENT PROTOCOL: Minimum inhibitory concentration, Pseudomonas aeruginosa ATCC 8689
# Assay type: cell-based
# SETTINGS: Pseudomonas aeruginosa, ATCC8689, read-out: Minimum Inhibitory Concentration
Answers are plain numbers, in µg/mL.

// batch mode: one MIC value per listed entry
1. CNCC1CCC(N)C(OC2C(N)CC(N)C(OC3OC(CO)C(C)(O)C(NC)C3O)C2O)O1 (stereo not shown)
2. NC[C@H]1O[C@H](O[C@H]2[C@H](O)[C@@H](O[C@H]3O[C@H](CO)[C@@H](O)[C@H](N)[C@H]3O)[C@H](N)C[C@@H]2N)[C@H](N)[C@@H](O)[C@@H]1O [KM-B, Kanamycin B, reference compound]

Response line:
[3.13, 100]

Prompt line: Specify the recorded MIC for NC[C@@H]1CC[C@@H](N)[C@@H](O[C@H]2[C@H](O)[C@@H](O[C@H]3O[C@H](CO)[C@@H](O)[C@H](N)[C@H]3O)[C@H](N)C[C@@H]2N)O1 [DKB, Dibekacin, reference compound] , system: Pseudomonas aeruginosa ATCC 8689.
Response line: 1.56

----------
Would you mind telling me the reported MIC of each entry?
# Test system: Salmonella enteritidis 1891
# MEASUREMENT PROTOCOL: Minimum inhibitory concentration, Salmonella enteritidis 1891
# Type: cell-based
# SETTINGS: Salmonella enterica; Salmonella enteritidis 1891; read-out: Minimum Inhibitory Concentration

Example compounds with recorded MIC:
COMPOUND | MEASURED TARGET | READOUT NAME | RESULT
CNC1C(O)C(OC2C(N)CC(N)C(OC3OC(CN)CCC3O)C2O)OC(CO)C1(C)O (stereo not shown) | Salmonella enteritidis 1891 | MIC | 1.56 µg/mL
NC[C@@H]1CC[C@@H](N)[C@@H](O[C@H]2[C@H](O)[C@@H](O[C@H]3O[C@H](CO)[C@@H](O)[C@H](N)[C@H]3O)[C@H](N)C[C@@H]2N)O1 [DKB, Dibekacin, reference compound] | Salmonella enteritidis 1891 | MIC | 0.78 µg/mL
CNCC1CCC(N)C(OC2C(N)CC(N)C(OC3OC(CO)C(C)(O)C(NC)C3O)C2O)O1 (stereo not shown) | Salmonella enteritidis 1891 | MIC | 0.78 µg/mL

Prompt line: Specify the recorded MIC for CNC1C(O)C(OC2C(N)CC(N)C(OC3OC(CN)CCC3N)C2O)OC(CO)C1(C)O (stereo not shown) , system: Salmonella enteritidis 1891.
Response line: 0.39 µg/mL

Data provenance is patent US4209511A.
